STATED CONDITIONS: 328.15 K; 40000 kPa; Liquid; Vibrating tube method
MEASURED ATTRIBUTE: mass density (kg/m3)

CCCC[n+]1ccccc1.F[B-](F)(F)F [1-butylpyridinium tetrafluoroborate] | 1211.63
CCC[n+]1ccccc1Oc1ccc(Cl)c[n+]1CCOS(=O)(=O)[O-].F[B-](F)(F)F | 1249.3
CCCC[n+]1ccccc1.O=S(=O)([O-])C(F)(F)F [1-butylpyridinium trifluoromethanesulfonate] | 1314.65
CCCC[n+]1cccc(C)c1.N#C[N-]C#N [1-butyl-3-methylpyridinium dicyanamide] | 1046.72
CCCCCCCC[n+]1cccc(C)c1.F[B-](F)(F)F [N-octyl-3-methylpyridinium tetrafluoroborate] | 1096.15
